TARGET OR SYSTEM: Factor X, P00742
Sequence (P00742 whole entry, looked up): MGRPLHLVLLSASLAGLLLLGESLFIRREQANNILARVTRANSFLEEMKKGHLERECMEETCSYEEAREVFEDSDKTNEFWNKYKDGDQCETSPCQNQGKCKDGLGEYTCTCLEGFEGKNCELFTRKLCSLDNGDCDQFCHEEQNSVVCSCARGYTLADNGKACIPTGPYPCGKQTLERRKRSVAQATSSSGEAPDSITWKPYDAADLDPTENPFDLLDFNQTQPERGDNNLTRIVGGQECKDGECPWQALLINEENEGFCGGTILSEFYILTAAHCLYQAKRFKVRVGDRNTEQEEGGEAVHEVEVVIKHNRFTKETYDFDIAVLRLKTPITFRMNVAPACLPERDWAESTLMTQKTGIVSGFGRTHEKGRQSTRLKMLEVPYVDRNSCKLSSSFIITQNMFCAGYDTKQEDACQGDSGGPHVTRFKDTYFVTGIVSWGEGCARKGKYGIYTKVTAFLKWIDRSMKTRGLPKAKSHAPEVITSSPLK
Entries whose KM is below 0.04 µM take Condition met; entries at or above 0.04 µM take Condition not met.

(Q) Would you kindly verify if KM of FIXa-I251S/R318Y/R338E/E410N (protein) chain 1: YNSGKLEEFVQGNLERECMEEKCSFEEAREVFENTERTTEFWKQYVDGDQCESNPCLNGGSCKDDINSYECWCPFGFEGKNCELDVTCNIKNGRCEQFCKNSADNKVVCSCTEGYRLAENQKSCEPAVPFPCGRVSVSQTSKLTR chain 2: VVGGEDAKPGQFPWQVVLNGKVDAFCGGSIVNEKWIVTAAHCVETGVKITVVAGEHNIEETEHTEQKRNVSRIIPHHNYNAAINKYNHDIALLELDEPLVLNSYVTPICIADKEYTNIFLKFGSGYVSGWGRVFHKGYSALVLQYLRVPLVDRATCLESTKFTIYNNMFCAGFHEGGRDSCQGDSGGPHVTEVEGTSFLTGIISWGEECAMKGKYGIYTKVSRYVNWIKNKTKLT is strictly less than 0.04 µM?
(A) Condition met

(Q) KM strictly < 0.04 µM for this protein? FIXa-D203N/F205T/R338E/R403E (protein) chain 1: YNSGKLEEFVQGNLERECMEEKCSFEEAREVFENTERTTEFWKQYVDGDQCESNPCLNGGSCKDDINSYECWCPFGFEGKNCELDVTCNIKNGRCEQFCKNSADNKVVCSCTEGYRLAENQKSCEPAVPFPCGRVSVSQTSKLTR chain 2: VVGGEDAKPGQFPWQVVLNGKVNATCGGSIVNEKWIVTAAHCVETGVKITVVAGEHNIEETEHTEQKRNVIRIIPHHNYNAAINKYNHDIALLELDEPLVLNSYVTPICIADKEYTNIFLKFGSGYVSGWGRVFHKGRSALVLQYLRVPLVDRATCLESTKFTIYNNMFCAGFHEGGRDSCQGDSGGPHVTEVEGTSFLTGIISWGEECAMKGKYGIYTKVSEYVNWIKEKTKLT
(A) Condition not met

(Q) Quick check: does FIXa-R318Y/R338E/R403E/E410N (protein) chain 1: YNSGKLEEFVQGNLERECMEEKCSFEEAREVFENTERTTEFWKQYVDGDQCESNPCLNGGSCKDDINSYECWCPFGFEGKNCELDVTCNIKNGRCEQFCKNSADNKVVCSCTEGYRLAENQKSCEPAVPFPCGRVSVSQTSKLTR chain 2: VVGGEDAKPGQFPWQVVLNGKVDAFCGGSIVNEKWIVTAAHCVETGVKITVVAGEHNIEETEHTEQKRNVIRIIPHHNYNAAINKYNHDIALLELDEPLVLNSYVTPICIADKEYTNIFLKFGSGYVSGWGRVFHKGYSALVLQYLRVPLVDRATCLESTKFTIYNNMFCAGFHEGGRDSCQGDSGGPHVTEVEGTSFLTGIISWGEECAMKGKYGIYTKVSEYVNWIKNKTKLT have KM under 0.04 µM?
(A) Condition not met

(Q) Dear colleague, could you confirm whether KM of FIXa-Y155F/R318Y/R338E/E410N (protein) chain 1: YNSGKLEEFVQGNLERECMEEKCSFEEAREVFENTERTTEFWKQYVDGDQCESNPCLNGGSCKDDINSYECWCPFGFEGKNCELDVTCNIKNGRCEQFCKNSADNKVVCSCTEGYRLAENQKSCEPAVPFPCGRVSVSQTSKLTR chain 2: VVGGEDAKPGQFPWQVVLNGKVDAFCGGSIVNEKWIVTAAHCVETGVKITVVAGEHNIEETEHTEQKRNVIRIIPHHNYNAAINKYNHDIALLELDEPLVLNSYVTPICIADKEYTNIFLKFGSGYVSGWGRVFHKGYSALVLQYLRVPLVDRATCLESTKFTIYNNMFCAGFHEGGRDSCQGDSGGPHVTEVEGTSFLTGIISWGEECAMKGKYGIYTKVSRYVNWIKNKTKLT falls below 0.04 µM? Thanks.
(A) Condition met

(Q) Given the entry FIXa-R318Y/R338E/R403E/E410S (protein) chain 1: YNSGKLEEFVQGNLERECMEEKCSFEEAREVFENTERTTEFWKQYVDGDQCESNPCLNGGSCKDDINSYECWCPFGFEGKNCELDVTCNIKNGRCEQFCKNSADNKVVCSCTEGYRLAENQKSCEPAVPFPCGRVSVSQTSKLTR chain 2: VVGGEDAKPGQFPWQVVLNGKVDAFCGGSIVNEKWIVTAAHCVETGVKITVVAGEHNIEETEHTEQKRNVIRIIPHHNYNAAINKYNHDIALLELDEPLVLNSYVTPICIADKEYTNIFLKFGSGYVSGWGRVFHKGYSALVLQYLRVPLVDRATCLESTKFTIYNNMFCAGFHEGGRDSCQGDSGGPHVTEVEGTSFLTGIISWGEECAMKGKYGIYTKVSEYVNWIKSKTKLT , would its reported KM be below 0.04 µM?
(A) Condition met
